Test system: DU-145 prostate
assay-comment: NCI tumour cell line growth inhibition, 48 h
assay-readout: TGI

compound | assay-readout | result
COc1cc2c3c(n(C)c(=O)c2cc1OC)-c1cc2c(cc1/C3=C\CN)OCO2 | TGI | 37.1 µM
O=c1cnn(C/C=C/CO)c(=O)[nH]1 | TGI | > 100 µM
CC(C)C(=O)OCC1OC(n2c(Br)nc3c(=O)[nH]c(N)nc32)C(OC(=O)C(C)C)C1OC(=O)C(C)C (stereo not given) | TGI | > 100 µM
COc1cc(Cn2c(-c3ccccc3)c(Cl)c3c2-c2oncc2CC3)cc(OC)c1 | TGI | > 100 µM
CN1CCN(C(=S)N2CCN(C)CC2)CC1 | TGI | > 100 µM
COc1ccc(/C=C2/N=C(c3ccccc3)N(c3c(C)n(C)n(-c4ccccc4)c3=O)C2=O)cc1OC | TGI | > 100 µM
Cc1nc2c(nc1C)-c1[nH]c3c(c1C(=O)C2=O)CCCC3=O | TGI | 23.5 µM
Nc1nc(/C=C\c2ccc([N+](=O)[O-])s2)nc(N2CCCC2)n1 | TGI | 16.4 µM
O=C1/C(=C/c2cccc(Cl)c2Cl)N=C(c2ccccc2)N1C1CC1 | TGI | 29.4 µM
COc1cc(NS(C)(=O)=O)ccc1Nc1c2ccccc2nc2c1[nH]c1ccc(NC3OC(CO)C(O)C(O)C3O)cc12 (stereo not given) | TGI | 0.245 µM
CCOC(=O)Nc1ccc(-c2nc(-c3cccc(OCCN4CCOCC4)c3)c(-c3ccnc(Br)c3)[nH]2)cc1 | TGI | > 100 µM
COc1ccc(S(=O)(=O)c2nnc(S(=O)(=O)Cc3ccccc3)s2)cc1 | TGI | 33 µM
S=C(S)NCNC(=S)S.[Zn+2] | TGI | > 100 µM
Cn1cc(NC(=O)Nc2cc(C(=O)Nc3cc(C(=O)Nc4ccc(S(=O)(=O)O)c5cc(S(=O)(=O)O)ccc45)n(C)c3)n(C)c2)cc1C(=O)Nc1cc(C(=O)Nc2ccc(S(=O)(=O)O)c3cc(S(=O)(=O)O)ccc23)n(C)c1 | TGI | > 100 µM
O=C(/C=C/c1cc2ccccc2o1)N1CCN(c2ccccn2)CC1 | TGI | > 100 µM
CCOC(=O)CN1C(=O)c2ccc(NC(=O)C(=O)O)cc2S1(=O)=O | TGI | > 100 µM
Cc1ccnc2[nH]c3ccccc3c(=O)c12 | TGI | > 100 µM
Cn1cc(C2=C(c3cn(CCCCO)c4ccccc34)C(=O)NC2=O)c2ccccc21 | TGI | > 25 µM
COc1cc(F)ccc1-c1ncnc(Nc2cccc(CS(C)(=N)=O)c2)n1 (stereo not given) | TGI | > 100 µM
Cn1c(=O)c2c(nc(Cc3ccccc3)n2CC(=O)O)n(C)c1=O | TGI | > 100 µM

----------
Test system: HT29 colon
assay-comment: NCI tumour cell line growth inhibition, 48 h

compound-smiles | GI50
COc1cc(-c2cc(-c3cc4c([nH]c5ccccc54)c(-c4cc(OC)c(OC)c(OC)c4)n3)cc(-c3ccccc3)n2)cc(OC)c1OC | 4.03 µM
Cc1nn(-c2ccc(Cl)cc2)c2nc3c(nc12)C(=O)c1ccccc1-3 | > 100 µM
COc1cc(Cn2c(-c3ccccc3)c(Cl)c3c2-c2oncc2CC3)cc(OC)c1 | 3.71 µM
C=C(C)[C@@H]1CC[C@]2(C)[C@H](CC=C3[C@@H]4CC(C)(C)CC[C@]4(C(N)=O)CC[C@]32C)[C@@]1(C)CCC#N | 3.48 µM
